target: Clade B BaL gp120 protein (HIV-1 Clade B, BaL)
method_notes: BLI (Octet), IgG on anti-hIgG Fc sensor, gp120 analyte, 1:1 fit
parameter_measured: kon

>>> observed_result("Germ6 (antibody, V domains shown) VH: ADLVQSGAVVKKPGDSVRVSCEAQGYRFPDYIIHWIRRAPGQGPEWMGWMNPMGGQVNIPWKFQGRVSMTRDTSIETAYLDLRGLKSDDTAVYYCVRDRSNGSGKRFESSNWFLDLWGRGTAVTVQS VL: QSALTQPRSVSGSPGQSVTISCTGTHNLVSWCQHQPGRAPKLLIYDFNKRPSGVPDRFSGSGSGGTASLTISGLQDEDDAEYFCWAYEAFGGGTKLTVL")
"77100 M⁻¹ s⁻¹"
>>> observed_result("Germ12 (antibody, V domains shown) VH: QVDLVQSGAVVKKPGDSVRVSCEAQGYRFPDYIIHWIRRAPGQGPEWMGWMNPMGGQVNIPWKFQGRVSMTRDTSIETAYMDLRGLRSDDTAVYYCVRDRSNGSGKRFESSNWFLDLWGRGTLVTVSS VL: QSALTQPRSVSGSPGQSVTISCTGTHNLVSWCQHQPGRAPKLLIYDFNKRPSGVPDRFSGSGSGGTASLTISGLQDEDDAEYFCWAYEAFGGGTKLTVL")
"80800 M⁻¹ s⁻¹"
>>> observed_result("CysCV (antibody, V domains shown) VH: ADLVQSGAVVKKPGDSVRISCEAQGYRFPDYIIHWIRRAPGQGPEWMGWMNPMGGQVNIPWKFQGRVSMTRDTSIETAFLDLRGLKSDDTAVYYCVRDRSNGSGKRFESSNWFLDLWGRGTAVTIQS VL: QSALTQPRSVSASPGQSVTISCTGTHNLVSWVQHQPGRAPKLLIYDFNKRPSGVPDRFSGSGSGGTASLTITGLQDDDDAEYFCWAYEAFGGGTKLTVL")
"77900 M⁻¹ s⁻¹"
